# Tested on: DIV17
# Test protocol: qHTS profiling for inhibitors of Plasmodium falciparum proliferation (AID 504749); also: nearly all actives have a fitted effect of over 60% in size
# Condition info: P. falciparum in erythrocytes, SYBR Green DNA, 72 h; series mostly up to 28.7 µM
Results filed as inconclusive are left out. The source made the active and inactive calls. Calls follow the shape of the dose curve; as a rule, active = well fitted inhibition curve with a large enough effect; inconclusive = small, poorly fitted or top-dose-only effect; inactive = flat fitted curve, though single readings scatter.
Outcomes you can answer with include only these: active, inactive

Prompt: For CCCCCCCCCCCC(=O)OCC(O)C1OCC(O)C1O (centres undefined) , what call appears in the results of this test?
Completion: inactive

Prompt: What did the test return for C=C[C@@]1(C)C[C@H](OC(=O)CSC(C)(C)CNC(=O)[C@@H](N)C(C)C)[C@@]2(C)C(C)CC[C@@]3(CCC(=O)[C@@H]32)[C@H](C)[C@H]1O (some centres undefined) ?
Completion: active

Prompt: Give the logged outcome of this assay for the following compound: O=C(O)C(O)c1ccccc1 (centres undefined)
Completion: inactive

Prompt: Per the records of this test, what outcome belongs to `CC1=C(/C=C/C(C)=C\C=C\C(C)=C\C=C\C=C(C)\C=C\C=C(C)\C=C\C2=C(C)C[C@@H](O)CC2(C)C)C(C)(C)C[C@H](O)C1` ?
Completion: active

Prompt: Could you please tell me the result logged for CNC(=O)C(N)CSC(C)C1=C(C)c2cc3[n-]c(cc4nc(cc5[n-]c(cc1n2)c(C)c5CCC(=O)O)C(CCC(=O)O)=C4C)c(C)c3C(C)SCC(N)C(=O)NC.[Fe+2] (centres undefined) in this assay?
Completion: inactive

Prompt: Please let me know the test result on file for Cc1ccc(/C=C2/C(=O)C3(C)CCC2C3(C)C)cc1 (centres undefined) .
Completion: inactive

Prompt: Field: outcome | Entry: `O=C(O)c1ccc(N[C@@H]2OC[C@@H](O)[C@@H](O)[C@@H]2O)cc1`
Completion: inactive

Prompt: Hi, sorry to bother you, what did the test record for NC(CSSCC(N)C(=O)O)C(=O)O (centres undefined) ?
Completion: inactive

Prompt: // outcome(item) with item = CC(C)CCCC(C)C1CC(=O)C2=C3CCC4CC(O)CCC4(C)C3CCC21C (centres undefined)
Completion: inactive

Prompt: Answer briefly: the call reported for `CNC1=CN(O)C(c2ccccc2)=c2cc(Cl)ccc2=N1` in this assay.
Completion: active

Prompt: Hello, I am checking results. What call was entered for CC12C=CC(=O)C=C1[C@@H](F)CC1C2C(O)CC2(C)C1CC[C@]2(O)C(=O)CO (some centres undefined) ?
Completion: inactive

Prompt: Answer briefly: the call reported for NC(=O)c1ncn(C2OC(CO)C(O)C2O)c1N (centres undefined) in this assay.
Completion: inactive

Prompt: Recorded call for `O=[N+]([O-])O[C@H]1CO[C@H]2[C@@H]1OC[C@H]2O` ?
Completion: inactive

Prompt: Tell me the assay call for `O=C(O)C[CH2][Ge](=[O])[O][Ge](=[O])[CH2]CC(=O)O` please.
Completion: inactive

Prompt: Given `C#C[C@@]1(O)CC[C@@H]2[C@H]3CCC4=C/C(=N\O)CC[C@H]4[C@@H]3CC[C@]21CC` , state the outcome it received in this test.
Completion: inactive

Prompt: For CC(=O)N1CC(O)CC1C(=O)O (centres undefined) , what call appears in the results of this test?
Completion: inactive

Prompt: Tell me the recorded outcome of this test for CCCCCOC(=O)Nc1nc(=O)n(C2O[C@H](C)[C@@H](O)[C@@H]2O)cc1F (some centres undefined) .
Completion: inactive

Prompt: What did the test return for C[C@H]1OC(OC2C(O)[C@@H](O)C(OC3C(O)[C@@H](O)C(O)O[C@@H]3CO)O[C@@H]2CO)[C@H](O)C(O)C1N[C@H]1C=C(CO)[C@@H](O)[C@H](O)C1O (some centres undefined) ?
Completion: inactive

Prompt: Given `C[C@@H](O)[C@@H]1C(=O)N2C(C(=O)O)=C([C@H]3CCCO3)S[C@H]12` , state the outcome it received in this test.
Completion: inactive
